B1: HSP90AB1 (parent)
chain: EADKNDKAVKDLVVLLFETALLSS

# Variants of: B1
# Experiment Notes: protein stability index of a GFP-peptide fusion (GPS, HEK-293T) (PSI 1-6); higher = more stable;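 note: lentivirally expressed fusions sorted by FACS into six bins by GFP to DsRed ratio, PSI derived from sequencing read proportions per bin multiplied by bin number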
# Condition Summary: c terminus: a fixed tail appended
Quantity: protein stability index
# print the numeric value only

[
  {
    "Mutant Label": "E18K",
    "protein stability index": 2.42
  },
  {
    "Mutant Label": "L16I",
    "protein stability index": 2.07
  },
  {
    "Mutant Label": "D6H",
    "protein stability index": 2.6
  }
]

Request: Entry V14G has what protein stability index?
Result: 2.19

Request: protein stability index lookup needed for E1F , thanks.
Result: 1.36

Request: Which protein stability index reading was recorded for the variant V14Y ?
Result: 1.88

Request: protein stability index for V14K ?
Result: 2.64

Request: Suppose we examine the variant E18C ; what protein stability index value has been reported?
Result: 1.82

Request: Consider the variant shown here: K10E What is its recorded protein stability index?
Result: 2.18

Request: Given the entry D11A , report its measured protein stability index.
Result: 2.54

Request: Any idea what its protein stability index is? The variant is L21S
Result: 2.28
